target: Acetylcholinesterase (Electrophorus electricus) (UniProt O42275); experiment: Inhibition of electric eel AChE at 100 uM preincubated for 5 mins by Ellman's method
Sequence (O42275 24-633 limits assumed): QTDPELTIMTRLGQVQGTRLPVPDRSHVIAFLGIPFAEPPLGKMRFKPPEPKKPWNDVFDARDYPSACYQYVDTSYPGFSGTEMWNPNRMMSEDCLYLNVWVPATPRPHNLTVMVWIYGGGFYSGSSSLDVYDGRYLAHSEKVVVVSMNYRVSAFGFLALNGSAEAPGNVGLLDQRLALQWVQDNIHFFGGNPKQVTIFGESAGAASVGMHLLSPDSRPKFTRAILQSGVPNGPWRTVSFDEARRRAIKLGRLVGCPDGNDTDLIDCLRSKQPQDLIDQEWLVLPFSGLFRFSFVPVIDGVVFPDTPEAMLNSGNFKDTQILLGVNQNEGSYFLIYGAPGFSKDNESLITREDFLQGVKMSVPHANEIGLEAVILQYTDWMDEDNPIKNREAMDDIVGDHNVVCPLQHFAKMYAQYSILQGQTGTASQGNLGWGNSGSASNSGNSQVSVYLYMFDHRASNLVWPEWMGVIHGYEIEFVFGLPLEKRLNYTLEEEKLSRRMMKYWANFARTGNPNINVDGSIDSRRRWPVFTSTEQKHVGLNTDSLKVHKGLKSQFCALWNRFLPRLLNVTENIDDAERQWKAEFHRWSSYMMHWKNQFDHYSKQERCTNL
The source made the active and inactive calls. The rule behind the calls is not given here.
quantity_kind: inhibition

In the examples that follow, each entry is paired with its recorded inhibition.
Cc1ccccc1NC(=O)Oc1ccc(CC(=O)NC2CCN(Cc3ccccc3)CC2)cc1	24.7%
CC(C)NC(=O)Oc1ccc(CC(=O)N2CCN(Cc3ccccc3)CC2)cc1	inactive
O=C(Cc1ccc(O)cc1)NC1CCN(Cc2ccccc2)CC1	15.2%
CCNC(=O)Oc1cccc(CC(=O)N2CCN(Cc3ccccc3)CC2)c1	inactive

Please examine the following record next.
Request: Please give the measured inhibition for this compound: `CCCNC(=O)Oc1ccc(CC(=O)N2CCN(Cc3ccccc3)CC2)cc1`
Result: inactive
